target: Dopamine D2 Receptor (Rattus norvegicus, UniProt P61169); assay: Dopamine D2 Receptor Binding Assay (displacement of [^3 H]raclopride); conditions: rat striatum membrane, [^3 H]raclopride (1 nM), 25° C., an hour
Sequence (P61169 whole entry): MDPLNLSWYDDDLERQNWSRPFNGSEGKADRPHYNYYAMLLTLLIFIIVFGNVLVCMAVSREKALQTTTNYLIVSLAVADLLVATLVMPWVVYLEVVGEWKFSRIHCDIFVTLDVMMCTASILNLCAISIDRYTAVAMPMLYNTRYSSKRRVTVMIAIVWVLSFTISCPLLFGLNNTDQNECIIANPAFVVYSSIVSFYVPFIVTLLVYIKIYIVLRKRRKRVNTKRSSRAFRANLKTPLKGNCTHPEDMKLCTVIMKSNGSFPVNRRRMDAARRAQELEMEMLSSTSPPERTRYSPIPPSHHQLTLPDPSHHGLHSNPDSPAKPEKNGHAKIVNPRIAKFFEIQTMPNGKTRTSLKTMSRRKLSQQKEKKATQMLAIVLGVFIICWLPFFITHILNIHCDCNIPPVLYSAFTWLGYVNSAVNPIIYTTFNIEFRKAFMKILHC
pIC50: −log10 of the molar value.
reported-property: pIC50

The examples below pair each entry with its known result.
- smiles-input: "Cc1ccc(-c2[nH]ncc2CCN2CCC(=Cc3ccc(F)cc3)CC2)cc1"
  tested-target: "Dopamine D2 Receptor (Rattus norvegicus, UniProt P61169)"
  pIC50: 7.25
- smiles-input: "Fc1ccc(-c2[nH]ncc2CCN2CCC(=Cc3cccc(F)c3)CC2)cc1"
  tested-target: "Dopamine D2 Receptor (Rattus norvegicus, UniProt P61169)"
  pIC50: 7.49

(I) Cc1ccc(C=C2CCN(CCc3cn[nH]c3-c3ccc(F)cc3)CC2)cc1
(II) CSc1nc(-c2ccc(F)cc2)c(CCN2CCC(=Cc3cccc(F)c3)CC2)[nH]1
Compare reported pIC50 values for I and II . Which is lower? Refer to your chosen entry by its label in the reply.
I
(I: 6.77, II: 7.21)
